# target-entity: Cannabinoid receptor 2 (Mus musculus, UniProt P47936)
# Sequence (P47936 whole entry): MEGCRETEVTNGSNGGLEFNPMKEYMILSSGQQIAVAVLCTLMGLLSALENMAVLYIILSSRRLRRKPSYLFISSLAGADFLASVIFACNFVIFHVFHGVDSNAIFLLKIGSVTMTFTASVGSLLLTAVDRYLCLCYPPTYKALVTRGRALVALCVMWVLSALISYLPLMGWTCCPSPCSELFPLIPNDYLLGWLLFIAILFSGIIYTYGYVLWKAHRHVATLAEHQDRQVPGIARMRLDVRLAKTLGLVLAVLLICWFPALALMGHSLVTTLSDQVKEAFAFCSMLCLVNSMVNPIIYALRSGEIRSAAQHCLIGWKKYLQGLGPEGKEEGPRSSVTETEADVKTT
# protocol-details: Displacement of [3H]-CP55940 from CD1 mouse spleen CB2 receptor by liquid scintillation counting
reported-property: pKi
One number for each entry, as −log10 of the molar value.

Cc1csc2c1-c1c(c(C(=O)NC3C[C@@H](C)CC[C@@H]3C(C)C)nn1-c1ccc(Cl)cc1Cl)C2 (stereo not given in full)	8.17
Cc1csc2c1-c1c(c(C(=O)NN3CCCC3)nn1-c1ccc(Cl)cc1Cl)C2	6.09
Cc1csc2c1-c1c(c(C(=O)NC3C(C)(C)C4CC[C@@]3(C)C4)nn1-c1ccc(Cl)cc1Cl)C2 (stereo not given in full)	8.28
Cc1ccc(Cn2nc(C(=O)NC3C[C@@H](C)CC[C@@H]3C(C)C)c3c2-c2c(C)csc2C3)cc1 (stereo not given in full)	8.57
Cc1ccc(Cn2nc(C(=O)NN3CCCC3)c3c2-c2c(C)csc2C3)cc1	6.29
Cc1csc2c1-c1c(c(C(=O)NN3CCCCCC3)nn1-c1ccc(Cl)cc1Cl)C2	6.49
Cc1cc2c(s1)Cc1c(C(=O)NN3CCCCCC3)nn(-c3ccc(Cl)cc3Cl)c1-2	8.96
Cc1ccc(Cn2nc(C(=O)NN3CCCCC3)c3c2-c2c(C)csc2C3)cc1	6.90

I have 4 compounds here; please give me pKi for each one.
1. Cc1ccc(Cn2nc(C(=O)NC3C[C@@H](C)CC[C@@H]3C(C)C)c3c2-c2cc(C)sc2C3)cc1 (stereo not given in full)
2. Cc1cc2c(s1)Cc1c(C(=O)NC3C[C@@H](C)CC[C@@H]3C(C)C)nn(-c3ccc(Cl)cc3Cl)c1-2 (stereo not given in full)
3. Cc1csc2c1-c1c(c(C(=O)NN3CCCCC3)nn1-c1ccc(Cl)cc1Cl)C2
4. Cc1ccc(Cn2nc(C(=O)NC3C(C)(C)C4CC[C@@]3(C)C4)c3c2-c2c(C)csc2C3)cc1 (stereo not given in full)

Result block:
[8.32, 8.29, 6.24, 8.62]
